condition.set: 298.15 K; 101.33 kPa; Liquid; Vibrating tube method

{"columns": ["mol.smiles", "mass density / kg/m3"],
 "data": [
  ["Cc1ccncc1", 950.179],
  ["Cc1cccnc1", 952.002],
  ["Cc1ccccn1", 939.802],
  ["c1ccncc1", 978.249],
  ["Cc1ccccc1N", 994.351]
]}

----------
speed of sound values by entry
condition.set: 298.15 K; 101.33 kPa; Liquid; Sing-around technique in a fixed-path interferometer

{"columns": ["mol.smiles", "speed of sound (m/s)"],
 "data": [
  ["c1ccncc1", 1417.8],
  ["Cc1ccccn1", 1380.1],
  ["Cc1ccncc1", 1431.5],
  ["Cc1ccccc1N", 1602.6],
  ["Cc1cccnc1", 1424]
]}

Data provenance: the NIST ThermoML archive (doi:10.1016/j.jct.2010.12.028)
